target: Luciferin 4-monooxygenase (Photinus pyralis) (UniProt P08659); experiment: Primary firefly luciferase (FLuc) qHTS assay for identification of artifact compounds. (AID 1845220); settings: purified firefly luciferase, luminescence, 5 min; series mostly up to 54.1 µM;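 also: plate controls were DMSO vehicle for no effect and no enzyme for full effect; nearly all actives have a fitted effect of over 60% in size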
Activity calls are given as the source filed them. Calls follow the shape of the dose curve; as a rule, active = well fitted inhibition curve with a large enough effect; inconclusive = small, poorly fitted or top-dose-only effect; inactive = flat fitted curve, though single readings scatter.

{"columns": ["compound", "activity change, negative = inhibition"],
 "data": [
  ["COc1c2c(c(C)c3c1C(=O)OC3)O[C@@]1(C)C[C@@H](O)[C@]34O[C@](OC)(CC[C@]3(C)[C@H]1C2)OC4(C)C", "inactive"],
  ["COc1ccc(/C=C/C(=O)O[C@@H]2[C@@H](OC(C)=O)[C@@H](OC(C)=O)[C@H](O[C@H]3[C@@H]4C=CO[C@@H](O[C@@H]5O[C@H](CO)[C@@H](O)[C@H](O)[C@H]5O)[C@@H]4[C@@]4(CO)O[C@@H]34)O[C@H]2C)cc1O", "inactive"],
  ["CC(C)C1=CC2=CCC3[C@](C)(CCC[C@@]3(C)C(=O)O)C2CC1=O (stereo partly drawn)", "inactive"]
]}

###

test: Primary qHTS for inhibitors of nuclear receptor binding SET domain protein 2 (NSD2) in an RCH-ACV wild type WT cells (2C) (AID 1645877); conditions: RCH-ACV (leukaemia line) NSD2 WT (2C) viability, CellTiter-Glo, 72 h; series mostly up to 44.9 µM; also: nearly all actives have a fitted effect of over 70% in size; as to activity change, negative = cell killing: % is scaled to controls: 0 for no effect and ±100 for the full control effect
Records with an inconclusive call do not appear. Active and inactive are the calls of the source. Calls follow the shape of the dose curve; as a rule, active = well fitted inhibition curve with a large enough effect; inconclusive = small, poorly fitted or top-dose-only effect; inactive = no such curve, though single readings can be large or run the other way.
measurement_label: activity change, negative = cell killing

{"columns": ["compound", "measurement_label", "observed_measurement"],
 "data": [
  ["CC1CCC2C(C(=O)O)=CC3C(O)C(C)(C)CC123 (centres undefined)", "activity change, negative = cell killing", "inactive"],
  ["CO[C@@H]1COCC[C@@H]1N[C@@H]1CC[C@@](C(=O)N2CCc3ncc(C(F)(F)F)cc3C2)(C(C)C)C1", "activity change, negative = cell killing", "inactive"],
  ["CC1CCC2(O1)C(C)(C)CC(O[C@@H]1O[C@H](CO[C@@H]3OC[C@](O)(CO)[C@H]3O)[C@@H](O)[C@H](O)[C@H]1O)CC2(C)O (some centres undefined)", "activity change, negative = cell killing", "inactive"],
  ["CO/N=C(/C(=O)N[C@@H]1C(=O)N2C(C(=O)O)=C(CSC(=O)c3ccco3)CS[C@H]12)c1csc(N)n1", "activity change, negative = cell killing", "inactive"]
]}

###

System: CASKI
Assay: Primary qHTS to identify gynecologic anti-cancer compounds using libraries of approved drugs and bioactive compounds (AID 1345084); also: % is scaled to controls: 0 for no effect and ±100 for the full control effect; nearly all actives have a fitted effect of over 55% in size
Settings: Gynecologic cancer cell panel viability, ATPlite luminescence, 48 h; series mostly up to 57.5 µM
Text: National Center for Advancing Translational Sciences [NCATS] Assay Overview: Chemotherapeutic drug responses vary from cancer to cancer and from patient to patient. […] ATPlite is a luminescence based assay reliant on the conversion of a luciferase substrate to light in the presence of ATP. As a cytotoxic compound will suppress growth and decrease the number of cells, the concentration of ATP will decrease, and less light signal will be detected in the well. […]
Results filed as inconclusive are left out. The source made the active and inactive calls. Calls come from the whole dose curve; as a rule, active = well fitted cell-killing curve with a large enough effect; inconclusive = small, poorly fitted or top-dose-only effect, or effect the other way; inactive = flat fitted curve, though single readings scatter.
measurement_label: activity change, negative = cytotoxicity

Solved cases (2 shown):
{"columns": ["compound", "observed_measurement"],
 "data": [
  ["C=C(C)C(C)C1OC23CC4(CO2)C(CCC2C5(C)CCC(OC6OCC(O)C(OC7OC(CO)C(O)C(OC8OCC(O)C(O)C8O)C7O)C6OC6OC(CO)C(O)C6O)C(C)(C)C5CCC24C)C3C(C)(O)C1OC(C)=O (centres undefined)", "5.79% [at 11.6 µM] (inactive)"],
  ["CC1(C)CC2C3=CCC4C5(C)CCC(OC6OC(C(=O)O)C(O)C(O)C6OC6OC(CO)C(O)C(O)C6OC6OC(CO)C(O)C(O)C6O)C(C)(CO)C5CCC4(C)C3(C)CCC2(C)C(OC2OCC(O)C(OC3OC(CO)C(O)C(O)C3O)C2O)C1O (centres undefined)", "6.12% [at 6.55 µM] (inactive)"]
]}

Q) Form field: activity change, negative = cytotoxicity recorded for C=CC(C)(O)CC/C=C(/C)C(=O)OC1C(OC2OCC(OC3OC(CO)C(O)C(O)C3O)C(OC3OCC(O)C(OC4OC(C)C(O)C(O)C4O)C3O)C2O)COC(OC(=O)C23CCC(C)(C)CC2C2=CCC4C5(C)CCC(OC6OC(CO)C(OC7OC(CO)C(O)C(OC8OCC(O)C(O)C8O)C7O)C(O)C6O)C(C)(C)C5CCC4(C)C2(C)CC3O)C1O (centres undefined) with CASKI (enter value)
A) 8.91% [at 6.55 µM] (inactive)

Source of measurements: PubChem BioAssay (NCATS)
